The origin of these recorded values is patent US7662832B2.

# target_or_test_system: Proton Pump (H^+/K^+-ATPase) (Sus scrofa, UniProt P19156)
# Sequence (P19156 2-1034 limits assumed): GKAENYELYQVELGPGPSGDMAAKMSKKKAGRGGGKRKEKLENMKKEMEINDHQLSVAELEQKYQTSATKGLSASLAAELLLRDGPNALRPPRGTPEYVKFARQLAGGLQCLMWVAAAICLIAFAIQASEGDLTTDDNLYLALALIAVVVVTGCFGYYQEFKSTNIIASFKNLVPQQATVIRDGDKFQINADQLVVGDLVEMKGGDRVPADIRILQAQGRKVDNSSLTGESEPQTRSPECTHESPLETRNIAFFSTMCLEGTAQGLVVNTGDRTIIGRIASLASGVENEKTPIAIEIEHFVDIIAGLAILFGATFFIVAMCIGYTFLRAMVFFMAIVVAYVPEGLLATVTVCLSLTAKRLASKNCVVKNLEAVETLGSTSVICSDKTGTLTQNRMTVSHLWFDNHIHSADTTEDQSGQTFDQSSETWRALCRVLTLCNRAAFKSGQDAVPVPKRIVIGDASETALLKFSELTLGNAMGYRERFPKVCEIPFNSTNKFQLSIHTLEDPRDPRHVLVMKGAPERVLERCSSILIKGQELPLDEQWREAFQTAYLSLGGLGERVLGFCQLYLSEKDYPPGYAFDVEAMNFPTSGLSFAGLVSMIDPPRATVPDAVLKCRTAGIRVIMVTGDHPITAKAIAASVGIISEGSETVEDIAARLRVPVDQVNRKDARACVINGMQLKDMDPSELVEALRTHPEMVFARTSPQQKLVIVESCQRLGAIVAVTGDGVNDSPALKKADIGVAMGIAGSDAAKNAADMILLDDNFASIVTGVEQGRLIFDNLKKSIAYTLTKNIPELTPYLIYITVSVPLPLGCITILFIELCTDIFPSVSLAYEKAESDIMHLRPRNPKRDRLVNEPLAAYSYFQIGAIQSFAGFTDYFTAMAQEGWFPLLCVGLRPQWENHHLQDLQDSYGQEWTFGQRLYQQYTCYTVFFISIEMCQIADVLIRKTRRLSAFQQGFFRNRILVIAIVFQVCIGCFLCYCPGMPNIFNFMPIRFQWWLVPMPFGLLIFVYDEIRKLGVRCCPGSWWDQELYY
# Sequence (P18434 whole entry partner): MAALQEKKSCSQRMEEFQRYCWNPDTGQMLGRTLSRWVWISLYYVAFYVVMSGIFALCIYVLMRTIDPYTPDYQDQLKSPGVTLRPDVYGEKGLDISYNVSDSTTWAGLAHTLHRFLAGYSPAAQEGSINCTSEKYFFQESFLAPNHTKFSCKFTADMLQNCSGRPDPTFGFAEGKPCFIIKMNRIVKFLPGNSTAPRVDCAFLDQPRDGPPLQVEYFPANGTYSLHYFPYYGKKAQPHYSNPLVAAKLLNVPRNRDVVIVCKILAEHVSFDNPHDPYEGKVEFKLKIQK
# assay: Inhibitory effects on proton pump (H^+/K^+-ATPase) activity
# experimental_parameters: hog gastric vesicles; K^+ stimulated H^+/K^+-ATPase activity; 30 minutes at 37° C.
Structures can show the parent of a compound that is named as a salt.
Can you tell me IC50 for the items I'm about to list?
State just the number; it will be interpreted in nM.

## Input For Cc1c(C)n(Cc2ccccc2)c2c(N3CCc4ccccc4C3C)nccc12 (centres unmarked) [Example 556, hydrochloride] , what is its reported IC50?
## Output 130

## Input Same again, this time with Cc1c(C)n(CC(C)C)c2c(NCc3ccccc3)nccc12 [Example 184, hydrochloride]
## Output 240

## Input And for Cc1c(C)n(Cc2cccc(F)c2)c2c(N3CCc4ccccc4C3)nc(CNC3CC3)cc12 [Example 871, hydrochloride] ?
## Output 37

## Input And `C=CCn1c(C)c(C)c2cc(C(=O)NC3CC3)nc(N3CCc4ccccc4C3)c21` ?
## Output 125

## Input Proceed to C=Cc1ccc(-c2nccc3c(C)c(C)n(Cc4cccc(OC)c4)c23)cc1 [Example 253, hydrochloride]
## Output 170

## Input Moving on to Cc1c(C)n(Cc2cccc(F)c2)c2c(N3CCc4ccccc4C3)nc(C(C)O)cc12 (centres unmarked) [Example 860, hydrochloride]
## Output 313

## Input Field entry: Cc1c(C)n(Cc2cccc(F)c2)c2c(CNc3ccc(F)cc3)nccc12 [Example 91, hydrochloride]
## Output 209

## Input What about Cc1[nH]c2c(N3CCc4cc(F)ccc4C3C)nccc2c1C (centres unmarked) [Example 561, hydrochloride] ?
## Output 65

## Input Another compound to check: Cc1c(C)n(CC2CC2)c2c(-c3ccc4ccccc4c3)nccc12 [Example 403, hydrochloride]
## Output 70

## Input Proceed to CCn1c(C)c(C)c2cc(C(=O)N3CCC(O)CC3)nc(N3CCc4ccccc4C3)c21 [Example 806, hydrochloride]
## Output 13

## Input Same again, this time with COCCn1c(C)c(C)c2cc(C(=O)N3CCCCC3)nc(N3CCc4ccccc4C3)c21 [Example 792, hydrochloride]
## Output 59

## Input Please give the result for `C#CCn1c(C)c(C)c2cc(C(N)=O)nc(N3CCc4ccccc4C3)c21` too.
## Output 1.5

## Input // repeat for CCC1c2ccccc2CCN1c1nccc2c(C)c(C)[nH]c12 (centres unmarked) [Example 574, hydrochloride] and report
## Output 420

## Input Lookup COc1ccc(-c2nccc3c(C)c(C)n(Cc4ccccc4F)c23)cc1 [Example 353, hydrochloride]
## Output 490

## Input Please do the same for Cc1c(C)n(Cc2ccccc2)c2c(N3CCc4ccccc4C3)nc(CN3CCN(C)CC3)cc12 [Example 883, hydrochloride] as well.
## Output 87

## Input # repeat for Cc1ccc(Cn2c(C)c(C)c3ccnc(NCc4ccc(F)cc4)c32)cc1 [Example 220, hydrochloride]
## Output 430

## Input And Cc1c(C)n(Cc2ccccc2F)c2c(N(C)Cc3ccc(F)cc3)nccc12 [Example 147, hydrochloride] ?
## Output 200
